The measurements presented in this section are drawn from the NIST ThermoML archive (doi:10.1021/je0601208).

assay: xn = mol fraction of the nth substance listed; details: 318.15 K, x1 = 0.35
Endpoint: surface tension liquid-gas (mN/m)

1. CCCC(=O)OCCC(C)C [3-methylbutyl butanoate] + CCO; 21.8
2. CCOC(=O)Cc1ccccc1 [ethyl phenylacetate] + CCO; 24.7
3. CCCCCCCC(=O)OCC [ethyl octanoate] + CCO; 23
4. CC(=O)OCCC(C)C [3-methylbutyl ethanoate] + CCO; 21.1
5. CCCCCC(=O)OCC [ethyl hexanoate] + CCO; 22.2
6. CCOC(=O)c1ccccc1 [ethyl benzoate] + CCO; 25.3

----------
# reported refractive index; entries follow
assay: refractive index (Na D-line) (dimensionless); xn = mol fraction of the nth substance listed; conditions: 288.15 K; 100.5 kPa; Liquid; Standard Abbe refractometry; x1 = 0.4
Endpoint: refractive index

1. CCCC(=O)OCCC(C)C [3-methylbutyl butanoate] + CCO; 1.39656
2. CCCCCCCC(=O)OCC [ethyl octanoate] + CCO; 1.40245
3. CCOC(=O)Cc1ccccc1 [ethyl phenylacetate] + CCO; 1.45242
4. CCCCCC(=O)OCC [ethyl hexanoate] + CCO; 1.39347
5. CC(=O)OCCC(C)C [3-methylbutyl ethanoate] + CCO; 1.38814
6. CCOC(=O)c1ccccc1 [ethyl benzoate] + CCO; 1.45479
